Readings of ALKALINE PHOSPHATASE for the listed compounds
# Organism: Rattus norvegicus
# PROTOCOL TEXT: DrugMatrix - Regimen: Daily Repeat
# Assay type: toxicity, organism-based, Sprague-Dawley
# Set-up: regimen Daily Repeat, gender Male, age 6-8 weeks
# PARTICULARS: in vivo, po, 50 mg/kg, 120 h, tissue Plasma, route oral GAVAGE, dose level Low, time 5 day, vehicle .5 % CMC
Respond with the bare value in u/L.

Q: Please list ALKALINE PHOSPHATASE recorded for the compound "CN(C)[C@@H]1C(O)=C(C(N)=O)C(=O)[C@@]2(O)C(O)=C3C(=O)c4c(O)ccc(Cl)c4[C@@](C)(O)[C@H]3C[C@@H]12"
A: 291.33

Q: Provide ALKALINE PHOSPHATASE value for the following compound: CCN1CCC[C@H]1CNC(=O)c1cc(S(N)(=O)=O)ccc1OC [LEVOSULPIRIDE]
A: 336

Q: Using the record for NC1CCN(c2nc3c(cc2F)c(=O)c(C(=O)O)cn3-c2ccc(F)cc2F)C1 (centres undefined) , state its measured ALKALINE PHOSPHATASE.
A: 218.33

Q: Hello, please tell me recorded ALKALINE PHOSPHATASE for this one: Cc1cccc(C)c1OCC(C)N (centres undefined)
A: 414.33

====

# Organism: Rattus norvegicus
# PROTOCOL TEXT: DrugMatrix - Regimen: Daily Repeat
# Format: toxicity, organism-based, Sprague-Dawley
# Set-up: regimen Daily Repeat, gender Male, age 6-8 weeks
# PARTICULARS: in vivo, po, 0 mg/kg, 72 h, tissue Plasma, route oral GAVAGE, dose level Control, time 3 day, vehicle 100 % WATER
ENDPOINT NAME: ALKALINE PHOSPHATASE (u/L)
Just the number in u/L, nothing appended.

Consider the reported ALKALINE PHOSPHATASE for these compounds:
Q: Name the recorded ALKALINE PHOSPHATASE of the compound listed here: NNc1nncc2ccccc12 [HYDRALAZINE]
A: 346.5

Q: // Input: Oc1cccc(O)c1O [PYROGALLOL] . Output its ALKALINE PHOSPHATASE only.
A: 399.83

Q: Could you please provide reported ALKALINE PHOSPHATASE for CS(=O)(=O)c1ccc([C@@H](O)[C@@H](CO)NC(=O)C(Cl)Cl)cc1 [THIAMPHENICOL] ? Thanks!
A: 404.33

Next:
Q: Fill in reported ALKALINE PHOSPHATASE for this entry: CC(C)(C)CC(C)(C)c1ccc(OCCOCC[N+](C)(C)Cc2ccccc2)cc1.[Cl-] [BENZETHONIUM CHLORIDE]
A: 346.5

Q: Hello, please tell me recorded ALKALINE PHOSPHATASE for this one: O.O.O.O.O.O.[Cl-].[Cl-].[Sr+2] [STRONTIUM CHLORIDE HEXAHYDRATE]
A: 404.33

Q: For the compound CN(C)CC[C@@H](c1ccc(Cl)cc1)c1ccccn1 [DEXCHLORPHENIRAMINE] , give its reported ALKALINE PHOSPHATASE.
A: 416

Q: Identify the reported ALKALINE PHOSPHATASE for the following entry. CN1[C@@H]2CC[C@H]1C[C@@H](OC(=O)C(CO)c1ccccc1)C2 (stereo partly drawn) [ATROPINE]
A: 356.17

Q: Given the compound Cn1c(=O)c2[nH]cnc2n(C)c1=O.O [THEOPHYLLINE] , write its reported ALKALINE PHOSPHATASE.
A: 334.17

====

# Organism: Rattus norvegicus
# PROTOCOL TEXT: DrugMatrix - Regimen: Daily Repeat
# Assay type: toxicity, organism-based, Sprague-Dawley
# Parameters: regimen Daily Repeat, gender Male, age 6-8 weeks
# PARTICULARS: in vivo, po, 0 mg/kg, 72 h, tissue Plasma, route oral GAVAGE, dose level Control, time 3 day, […]
Each entry below carries its reported CHLORIDE.
Expressed in MEQ/L, but write only the number.

Example results:
Q: Report CHLORIDE, nothing else, for this compound: Clc1ccc(COC(Cn2ccnc2)c2ccc(Cl)cc2Cl)cc1 (centres undefined)
A: 99.67

Q: Quick one: give measured CHLORIDE for "CO[C@H]1/C=C/O[C@@]2(C)Oc3c(C)c(O)c4c(O)c(c(/C=N/N5CCN(C6CCCC6)CC5)c(O)c4c3C2=O)NC(=O)/C(C)=C\C=C\[C@H](C)[C@H](O)[C@@H](C)[C@@H](O)[C@@H](C)[C@H](OC(C)=O)[C@@H]1C"
A: 102.17

Q: Supply recorded CHLORIDE for COc1cc(N)c(Cl)cc1C(=O)NC1CCN(CCCOc2ccc(F)cc2)CC1OC (centres undefined) [CISAPRIDE] here.
A: 95.83

Now look at this entry.
Q: Provide only the value of recorded CHLORIDE for CC(C)(C)NC(=O)[C@H]1CC[C@H]2[C@@H]3CC[C@H]4NC(=O)C=C[C@]4(C)[C@H]3CC[C@]12C [FINASTERIDE]
A: 99

====

# Species: Rattus norvegicus
# PROTOCOL TEXT: DrugMatrix - Regimen: Daily Repeat
# Format: toxicity, organism-based, Sprague-Dawley
# Design: regimen Daily Repeat, gender Male, age 6-8 weeks
# PARTICULARS: in vivo, po, 0 mg/kg, 72 h, tissue Blood, route oral GAVAGE, dose level Control, time 3 day, vehicle .5 % CMC
MEAN CORPUSCULAR HEMOGLOBIN values for the molecules below.
Give just the number in pg; leave the unit off.

Q: Identify MEAN CORPUSCULAR HEMOGLOBIN associated with the molecule "CCN(CC)CCOc1ccc(/C(=C(/Cl)c2ccccc2)c2ccccc2)cc1"
A: 23.37

Q: Please report MEAN CORPUSCULAR HEMOGLOBIN for the following molecule: "C[C@H]1O[C@@H](n2cc(F)c(=O)[nH]c2=O)[C@H](O)[C@@H]1O"
A: 25.1

Q: Give the measured MEAN CORPUSCULAR HEMOGLOBIN for "CN(C)[C@@H]1C(O)=C(C(N)=O)C(=O)[C@@]2(O)C(O)=C3C(=O)c4c(O)ccc(Cl)c4[C@@](C)(O)[C@H]3C[C@@H]12"
A: 25.38

Q: Report MEAN CORPUSCULAR HEMOGLOBIN, nothing else, for this molecule: "COC1=C(OC)C(=O)C(CCCCCCCCCCO)=C(C)C1=O"
A: 25.1

Q: Please list MEAN CORPUSCULAR HEMOGLOBIN recorded for the molecule NC1CCN(c2nc3c(cc2F)c(=O)c(C(=O)O)cn3-c2ccc(F)cc2F)C1 (stereo not drawn)
A: 21.9

Further cases:
Q: Consider the molecule "O=C1CN=C(c2ccccc2Cl)c2cc([N+](=O)[O-])ccc2N1" . State its measured MEAN CORPUSCULAR HEMOGLOBIN.
A: 25.1

Q: Give the reported MEAN CORPUSCULAR HEMOGLOBIN for this molecule. "COc1cc2nc(N3CCN(C(=O)c4ccco4)CC3)nc(N)c2cc1OC"
A: 24.6

Q: Name the recorded MEAN CORPUSCULAR HEMOGLOBIN of the molecule listed here: CNCCC(Oc1ccc(C(F)(F)F)cc1)c1ccccc1 (stereo not drawn)
A: 23.48

====

# Species: Rattus norvegicus
# PROTOCOL TEXT: DrugMatrix - Regimen: Daily Repeat
# Format: toxicity, organism-based, Sprague-Dawley
# Parameters: regimen Daily Repeat, gender Male, age 6-8 weeks
# PARTICULARS: in vivo, po, 0 mg/kg, 72 h, tissue Plasma, route oral GAVAGE, dose level Control, time 3 day, vehicle 100 % WATER
ENDPOINT NAME: ALANINE AMINOTRANSFERASE (u/L)
Number in u/L, nothing else.

A selection of reference data follows.
Q: Tell me its ALANINE AMINOTRANSFERASE given CN1[C@@H]2CC[C@H]1C[C@@H](OC(=O)C(CO)c1ccccc1)C2 (stereo not given in full) as the entry.
A: 45.33

Q: Given CN(C)CCOC(c1ccccc1)c1ccccc1 [DIPHENHYDRAMINE] , respond with its ALANINE AMINOTRANSFERASE.
A: 54.5

Q: Assign ALANINE AMINOTRANSFERASE to the following record: "Cc1ccc(NC(=O)c2ccc(CN3CCN(C)CC3)cc2)cc1Nc1nccc(-c2cccnc2)n1"
A: 53.17

Further cases:
Q: # return recorded ALANINE AMINOTRANSFERASE for input "Cn1c(=O)c2[nH]cnc2n(C)c1=O.O"
A: 50.83

Q: Respond only with ALANINE AMINOTRANSFERASE recorded for CC(C)NCC(O)c1ccc(NS(C)(=O)=O)cc1 (stereo not given)
A: 52.67

Q: Write down ALANINE AMINOTRANSFERASE measured for item "Oc1cccc(O)c1O"
A: 36.83

Q: Consider the molecule NNc1nncc2ccccc12 [HYDRALAZINE] and give its recorded ALANINE AMINOTRANSFERASE.
A: 54.5

Q: # return recorded ALANINE AMINOTRANSFERASE for input "CN(C)CC[C@@H](c1ccc(Cl)cc1)c1ccccn1"
A: 66

Q: Give reported ALANINE AMINOTRANSFERASE value for O.O.O.O.O.O.[Cl-].[Cl-].[Sr+2] [STRONTIUM CHLORIDE HEXAHYDRATE]
A: 53.17

Q: Specify ALANINE AMINOTRANSFERASE for CC(C)(C)CC(C)(C)c1ccc(OCCOCC[N+](C)(C)Cc2ccccc2)cc1.[Cl-] [BENZETHONIUM CHLORIDE] and stop.
A: 54.5
